Source: patent US8722622B2

Experiment: Stability of linkers L1-L4 conjugated to FGF21 (LC-MS)
Assay type: physicochemical
Conditions: +4° C., 0 hrs; % of total measured protein
Readout Name: 0 linker (unconjugated protein) (%)
Answer in %, number only, no unit symbol.

Q: Entry L1-FGF21ΔH-A129C: Linker-1 conjugated to FGF21ΔH-A129C protein (Table 4; Table 5 row L1) (conjugate, UniProt Q9NSA1 29-209, looked up, variant H1* A129C, Linker-1 attached) Fibroblast growth factor 21: PIPDSSPLLQFGGQVRQRYLYTDDAQQTEAHLEIREDGTVGGAADQSPESLLQLKALKPGVIQILGVKTSRFLCQRPDGALYGSLHFDPEACSFRELLLEDGYNVYQSEAHGLPLHLPGNKSPHRDPCPRGPARFLPLPGLPPALPEPPGILAPQPPDVGSSDPLSMVGPSQGRSPSYAS : reported 0 linker (unconjugated protein) = ?
A: 13
